Origin of measurements: PubChem BioAssay AID624297

Assay: A quantitative high throughput screen for small molecules that induce DNA re-replication in SW480 colon adenocarcinoma cells. Note: nearly all actives have a fitted effect of over 55% in size.
Conditions: Hoechst DNA content imaging, 48 h; series mostly up to 46.1 µM
About 6,200 (1.8%) of roughly 340,000 compounds were called active. About 10% were inconclusive and are not listed. Calls come from the whole dose curve; as a rule, active = well fitted activation curve with a large enough effect; inconclusive = small, poorly fitted or top-dose-only effect; inactive = no such curve, though single readings can be large or run the other way. Many of the other results were omitted from the sample, so actives are more common in it than they were.
Log the outcome using a class from active, inactive

Answered examples (5):
compound: CC(=O)C[C@H](O)CC(=O)[C@@H]1OC(=O)[C@@H](C)C/C=C\Cc2ccccc21
discrete-label: inactive
--
compound: Cc1ccc(C(=O)NCC(c2cccs2)N(C)C)cc1S(=O)(=O)N1CCOCC1 (stereo unspecified)
discrete-label: inactive
--
compound: O=C(c1cccc(S(=O)(=O)N2CCCCCC2)c1)N1CCN(Cc2ccccc2)CC1
discrete-label: inactive
--
compound: CCOC(=O)c1c(S(=O)(=O)Nc2cccc(Cl)c2)c(C)n(C)c1C
discrete-label: active
--
compound: CN(Cc1ccccc1)C(=O)COC(=O)/C=C/c1ccc2c(c1)OCO2
discrete-label: inactive

Check the results log: what was the call for `CCn1c(=S)[nH]c2cc(S(=O)(=O)N3CCOCC3)ccc21` ?
inactive

Check the results log: what was the call for `COc1ccc2c(C(=O)c3ccc(C)cc3)n(CCC(N)=O)[n+]([O-])c2c1` ?
inactive

Check the results log: what was the call for CCC(C)C1(C2CCCC2)NC(=O)NC1=O (stereo unspecified) ?
inactive
